Ref: PubChem BioAssay

Overview of recorded z-score for various compounds
- protocol: P. aeruginosa biofilm formation inhibitors, primary screen, PAO1 strain, BacTiter-Glo luminescence, LB-PBS (AID 1144)
- protocolConditions: 12 h, higher = more signal

- itemSmiles: "Cc1ccc(S[C@]2(C(=O)O)CC(=O)N(Cc3ccccc3)[C@@H]2c2ccc(CO)cc2I)cc1"
  z-score: 0.116
- itemSmiles: "CC(C)[C@H](NC(=O)OC(C)(C)C)[C@@H](O)CC(=O)OC(C)(C)C"
  z-score: -0.896
- itemSmiles: "CC(CCC(=O)OC[C@H]1O[C@H](C#Cc2ccccc2)C=C[C@@H]1Oc1ccc(C)cc1)=NOC[C@@H](O)COCc1ccco1"
  z-score: -0.128
- itemSmiles: "COCCOC(=O)N1C(=O)[C@@]2(c3cc(C#CCNC(N)=O)ccc31)[C@H](c1ccc(O)cc1)N1[C@H](c3ccccc3)[C@H](c3ccccc3)OC(=O)[C@H]1[C@@H]2C(=O)N1CCCCCCC1"
  z-score: -0.945
- itemSmiles: "COc1ccc(O[C@@H]2[C@H](O)CO[C@H]2C=CC#Cc2ccccc2)cc1"
  z-score: 0.995
- itemSmiles: "O=C1[C@H]2[C@H]3[C@H](O)[C@H](O)CC(=NOCc4ccccc4)[C@@H]3CC[C@H]2C(=O)N1Cc1ccccc1"
  z-score: 0.76
- itemSmiles: "CC(C)CON=C1C[C@@H](O)[C@@H](O)[C@@H]2[C@@H]3C(=O)N(Cc4ccccc4)C(=O)[C@@H]3CC[C@@H]12"
  z-score: 0.579
- itemSmiles: "COC(=O)[C@H](C)NC(=O)[C@@H](C)CO"
  z-score: 0.06
- itemSmiles: "O=C1[C@H]2[C@H]3[C@H](O)[C@H](O)CC(=NO[C@@H]4O[C@H](CO)[C@@H](O)[C@H](O)[C@H]4O)[C@@H]3CC[C@H]2C(=O)N1Cc1ccc2c(c1)OCO2"
  z-score: 0.572
- itemSmiles: "CCOC(=O)NN=C1C[C@@H](O)[C@@H](O)[C@@H]2[C@@H]3C(=O)N(CC)C(=O)[C@@H]3CC[C@@H]12"
  z-score: -0.0164
- itemSmiles: "CCCNC(=O)OC[C@H]1O[C@H](CCON=C[C@@H](OC)[C@H](C)C=CCC(=O)OC)C=C[C@@H]1Oc1ccc(OC)cc1"
  z-score: 1.18
- itemSmiles: "COC(=O)[C@@H]1CCCN1C(=O)[C@@H](C)CO"
  z-score: -0.985
- itemSmiles: "C=CC[C@@H]1C=C[C@H](ON=Cc2ccc(C(=O)N3[C@H](c4ccc(C)cc4)[C@@H](C)CC[C@H]3C(=O)OC)cc2)[C@@H](CO)O1"
  z-score: 0.694
- itemSmiles: "CO[C@@H]1COC(=O)CC=C[C@@H](C)[C@@H]2C=C[C@H](O)[C@@H](COC(=O)[C@H](C)NC(=O)CC=C[C@H]1C)O2"
  z-score: -0.972
- itemSmiles: "COC(=O)[C@@H]1CC[C@H](C)[C@@H](c2ccc(C)cc2)N1C(=O)c1ccc(C=NOC[C@@H](O)COCc2ccco2)cc1"
  z-score: 1.18

====

- protocol: RPMI8226 myeloma cell viability, profiling panel, resazurin fluorescence, basal, 24 h, PK04 Diversity Set (AID 1180);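 further: RPMI8826 multiple myeloma cell line at 5000 cells per well; test concentration not given here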
- protocolConditions: higher = more signal
Hi, to clarify the labels: Condition met covers z-score from -0.07 upward, Condition not met covers anything below -0.07.

- molecule: "CCN1C(=O)[C@H]2[C@H]3[C@H](O)[C@H](O)CC(=NOCc4ccccc4)[C@H]3CC[C@H]2C1=O"
  group: "Condition not met"
- molecule: "CCN1C(=O)[C@H]2[C@H]3[C@H](O)[C@H](O)CC(=NO[C@@H]4O[C@H](CO)[C@@H](O)[C@H](O)[C@H]4O)[C@@H]3CC[C@H]2C1=O"
  group: "Condition not met"
- molecule: "CC(=O)OC[C@H]1O[C@H](C#CCCCc2ccccc2)C=C[C@@H]1OC(C)=O"
  group: "Condition not met"
- molecule: "O=C1[C@H]2[C@H]3[C@H](O)[C@H](O)CC(=NOCc4ccccc4)[C@@H]3CC[C@H]2C(=O)N1Cc1ccccc1"
  group: "Condition met"
- molecule: "C[C@@H]1CC[C@H]2C(=O)O[C@H](COc3ccc(C(C)(C)C)cc3)CN2[C@H]1c1ccc(Br)cc1"
  group: "Condition met"
- molecule: "COc1cccc([C@@H]2Oc3ccc(Br)cc3C(=O)[C@H]2O)c1"
  group: "Condition not met"
- molecule: "CO[C@@H]1COC(=O)CC=C[C@@H](C)[C@@H]2C=C[C@H](O)[C@@H](COC(=O)CCC[C@H]1C)O2"
  group: "Condition met"
- molecule: "Cc1cc2c(nc1C)CCCN2CC(C)ON=C1[C@H]2CCn3c(=O)n(-c4ccccc4)c(=O)n3[C@H]2[C@H](O)[C@@H]2O[C@H]12 (some centres undefined)"
  group: "Condition not met"
- molecule: "O=C1[C@H]2[C@H]3[C@H](O)[C@H](O)CC(=NO[C@@H]4O[C@H](CO)[C@@H](O)[C@H](O)[C@H]4O)[C@H]3CC[C@H]2C(=O)N1C1CCCCC1"
  group: "Condition not met"
- molecule: "CCOC(=O)[C@H](Cc1ccccc1)NC(=O)CCC1CC(OC(=O)NCc2ccc3c(c2)OCO3)CC2(CCCC(COC(=O)NCC3CCCCC3)O2)O1 (some centres undefined)"
  group: "Condition met"
- molecule: "COCCOC(=O)N1C(=O)[C@@]2(c3cc(C#CC4(O)CCCCCC4)ccc31)[C@H](C(=O)N1CCN(c3ncccn3)CC1)[C@H]1C(=O)O[C@H](c3ccccc3)[C@H](c3ccccc3)N1[C@@H]2c1ccc(OCCO)cc1"
  group: "Condition met"
- molecule: "CCCNC(=O)OC[C@H]1O[C@H](CCON=C[C@@H](OC)[C@H](C)C=CCC(=O)OC)C=C[C@@H]1Oc1ccc(OC)cc1"
  group: "Condition met"
- molecule: "C#C[C@@H]1Oc2ccccc2S(=O)(=O)N2CCC[C@H]12"
  group: "Condition not met"
- molecule: "COCCOC(=O)N1C(=O)[C@@]2(c3cc(C#Cc4ccc(OC)cc4)ccc31)[C@H](C(=O)N1CCN(c3ncccn3)CC1)[C@H]1C(=O)O[C@H](c3ccccc3)[C@H](c3ccccc3)N1[C@@H]2c1ccc(OCCO)cc1"
  group: "Condition not met"

====

- protocol: basal S. cerevisiae growth modulation, no modifier, primary screen, OD600, strain BY4716, 24 h, basal condition (AID 1173)
- protocolConditions: OD600, 24 h, higher = more signal, called active from +8 up or from −8 down
measuredParameter: z-score

- compound: "CO[C@@H]1COC(=O)CC=C[C@@H](C)COC(=O)[C@H](COCc2ccccc2)NC(=O)CC=C[C@H]1C"
  observedResult: -0.591
- compound: "CC(CCN1CCCCc2nc(C)c(C)cc21)=NOC(C)CN1CCCc2nc(C)c(C)cc21 (stereo unspecified)"
  observedResult: -0.0975
- compound: "COc1ccc(O[C@@H]2[C@H](O)CO[C@H]2C=CC#Cc2ccccc2)cc1"
  observedResult: -0.274
- compound: "Cc1ccc(S(=O)(=O)N[C@@H]2COC(=O)[C@H](C)COC(=O)CC=C[C@H]2C)cc1"
  observedResult: 0.773
- compound: "CCCC=C(CCC)[C@@H](NC(=O)c1ccc(-c2ccccc2)cc1)c1ccc(C(=O)OC)cc1"
  observedResult: 1.44
- compound: "CN1C(=O)C2C=CC(C(O)c3ccc(I)cc3)N(NC(=O)OC(C)(C)C)C2C1=O (stereo unspecified)"
  observedResult: 0.9
- compound: "O=C1[C@H]2[C@H]3[C@H](O)[C@H](O)CC(=NOCc4ccccc4)[C@H]3CC[C@H]2C(=O)N1c1cccc(Oc2ccccc2)c1"
  observedResult: -0.47
- compound: "COc1ccc(O[C@H]2C=C[C@@H](c3ccccc3)O[C@@H]2COC(=O)CCC(C)=NOCC[C@@H]2C=C[C@H](OC(C)=O)[C@@H](COC(C)=O)O2)cc1"
  observedResult: 1.51
- compound: "CC(C)(C)OC(=O)CC[C@]1(C(=O)NCc2ccccc2)N=C(c2ccc(OCCCO)cc2)O[C@H]1c1ccccc1"
  observedResult: 0.69
- compound: "COC(=O)[C@@H]1CC[C@H](C)[C@@H](c2ccc(C)cc2)N1C(=O)c1ccc(C=NOC[C@@H](O)COCc2ccco2)cc1"
  observedResult: -0.346
- compound: "CC(C)CON=C1C[C@@H](O)[C@@H](O)[C@@H]2[C@@H]3C(=O)N(Cc4ccccc4)C(=O)[C@@H]3CC[C@@H]12"
  observedResult: -0.608
- compound: "CC(CCC(=O)OC[C@H]1O[C@H](C#Cc2ccccc2)C=C[C@@H]1Oc1ccc(C)cc1)=NOC[C@@H](O)COCc1ccco1"
  observedResult: 0.384
- compound: "COCCCNC(=O)[C@@]1(C)c2ccccc2C(=O)N(Cc2ccc(OC(F)(F)F)cc2)[C@H]1c1ccc(CO)cc1"
  observedResult: -0.0763
- compound: "CC(CCN1CCCCc2nc(C)c(C)cc21)=NOC(C)CN1CCCCc2nc(C)c(C)cc21 (stereo unspecified)"
  observedResult: -0.211
- compound: "C[C@H](c1ccccc1)N1C(=O)[C@H]2[C@H]3[C@H](O)[C@H](O)CC(=O)[C@@H]3CC[C@H]2C1=O"
  observedResult: 0.205
- compound: "C=CCN1C(=O)[C@]2(O[C@H](CCn3cc(CCO)nn3)[C@@H]([Si](C)(C)c3ccc(OC)cc3)[C@@H]2C)c2cc(N3CCOC3=O)ccc21"
  observedResult: -0.528
- compound: "CO[C@H]1COC(=O)[C@H](C)NC(=O)[C@@H](C)COC(=O)CC=C[C@@H]1C"
  observedResult: -0.518
- compound: "CO[C@H]1O[C@H](CO)[C@@H](OC(=O)Nc2ccc3c(c2)OCO3)[C@H](OC(=O)Nc2ccccc2-c2ccccc2)[C@@H]1OC(=O)Nc1ccccc1-c1ccccc1"
  observedResult: 1.42
- compound: "COCC1=C2[C@@H](CCc3ccccc3)OB(O)C[C@@H]2n2c(=O)n(-c3ccccc3)c(=O)n2C1"
  observedResult: -1.24
- compound: "COc1ccc(COC(=O)NN=C2C[C@@H](O)[C@@H](O)[C@@H]3[C@@H]4C(=O)N(c5ccc(F)cc5F)C(=O)[C@@H]4CC[C@@H]23)cc1"
  observedResult: 0.64
- compound: "CCOC(=O)CCN1C(=O)[C@H]2[C@H]3[C@H](O)[C@H](O)CC(=NOC[C@@H](O)COCc4ccco4)[C@H]3CC[C@H]2C1=O"
  observedResult: -11.7
- compound: "COC(=O)C1=CCC(c2cccc(Cl)c2)O1 (stereo unspecified)"
  observedResult: -3.58
- compound: "Cc1ccc(F)cc1S(=O)(=O)N[C@@H]1CCN(Cc2ccc(CC(C)C)cc2)C1"
  observedResult: -17.2
- compound: "CCN(CC)c1ccc(N2CC=CC34O[C@@H]5/C=C\\CCC(C)OC(=O)C5[C@H]3C(=O)N(CCCO)[C@@H]4C2=O)cc1 (stereo partly specified)"
  observedResult: 1.09
- compound: "CO[C@H]1COC(=O)CC=C[C@H](C)[C@@H](NS(=O)(=O)c2ccc(C)cc2)COC(=O)CC=C[C@@H]1C"
  observedResult: -1.66
- compound: "C#CCCCON=C1C[C@@H](O)[C@@H](O)[C@@H]2[C@@H]3C(=O)N(Cc4ccccc4)C(=O)[C@@H]3CC[C@H]12"
  observedResult: -1.43
- compound: "COc1ccc(-c2ccc3c(n2)CCCN3CC(O)CN2CCCc3nc(C)c(C)cc32)cc1 (stereo unspecified)"
  observedResult: -1.75
- compound: "COC(=O)CC=C[C@@H](C)[C@@H](C=NO[C@H](C)c1cn([C@@H]2COC[C@H]2O)nn1)OC"
  observedResult: -0.435
- compound: "O=C1C2C=CC(C(O)c3ccc([N+](=O)[O-])cc3)N(Nc3ccc([N+](=O)[O-])cc3)C2C(=O)N1c1ccccc1 (stereo unspecified)"
  observedResult: 1.61
- compound: "CCOC(=O)[C@H](Cc1ccccc1)NC(=O)CCC1CC(OC(=O)NCCc2ccc(F)cc2)CC2(CCCC(COC(=O)NCC(c3ccccc3)c3ccccc3)O2)O1 (stereo partly specified)"
  observedResult: 0.167
- compound: "COC(=O)[C@H]1COC(c2ccc(OCCCO)cc2)=N1"
  observedResult: -0.928
